These data points were gathered from ChEMBL document CHEMBL2346550.

assay: Cytotoxicity against mouse B16F10 cells assessed as cell viability at 20 ug/ml after 72 hrs by micro-culture MTT assay; type: cell-based, B16-F10; conditions: read-out: Activity
Quantity: viability at 72 h, 20 ug/ml
Remember to quote the unit after the number.

INSERT INTO measurements (chemical_smiles, quantity, value_observed) VALUES
  ('CC(=O)Oc1ccc2ccccc2c1/N=N/c1ccc(C2=N/C(=C/c3ccc(OC(F)(F)F)cc3)C(=O)O2)cc1', 'viability at 72 h, 20 ug/ml', '68.7%'),
  ('CN(C)c1ccc(/N=N/c2ccc(C3=N/C(=C/c4ccc(F)cc4)C(=O)O3)cc2)cc1', 'viability at 72 h, 20 ug/ml', '71.9%');

Now for another entry.
Problem: Which viability at 72 h, 20 ug/ml is listed for "CC(=O)Oc1c(/N=N/c2ccc(C3=N/C(=C/c4ccc(F)cc4)C(=O)O3)cc2)ccc2ccccc12" ?
Solution: 72.1%
